Entry source: the supplement of paper PMC10567573

B1: SOAT1 (parent)
chain: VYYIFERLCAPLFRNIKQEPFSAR

- Variants of: B1
- Test name: protein stability index of a GFP-peptide fusion (GPS, HEK-293T) (PSI 1-6); higher = more stable;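 further: lentivirally expressed fusions sorted by FACS into six bins by GFP to DsRed ratio, PSI derived from sequencing read proportions per bin multiplied by bin number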
- Measurement parameters: c terminus: a fixed tail appended
Grouping by measured protein stability index is done with the following cut points: lower (below 2), middle (2 to below 3), upper (3 or more)

>>> label("L12Y")
"middle"
>>> label("P11R")
"middle"
>>> label("Y2N")
"lower"
>>> label("P20L")
"middle"
>>> label("A10V")
"upper"
>>> label("I16A")
"lower"
>>> label("Y2K")
"lower"
>>> label("E19Y")
"middle"
>>> label("A10N")
"upper"
>>> label("P11I")
"middle"
>>> label("N15A")
"middle"
>>> label("C9I")
"lower"
>>> label("I16D")
"upper"
>>> label("L12E")
"middle"
>>> label("I4Q")
"middle"
>>> label("R14F")
"middle"
>>> label("F21D")
"middle"
>>> label("I16C")
"middle"
>>> label("N15H")
"middle"
>>> label("N15I")
"middle"
>>> label("N15L")
"middle"
>>> label("I4E")
"lower"
>>> label("N15F")
"lower"
>>> label("I16G")
"middle"
>>> label("S22Y")
"upper"
>>> label("F5N")
"lower"
>>> label("Q18W")
"middle"
>>> label("P11A")
"lower"
>>> label("S22G")
"middle"
>>> label("P20V")
"middle"
>>> label("L12H")
"upper"
>>> label("F13I")
"middle"
>>> label("F21M")
"middle"
>>> label("Q18C")
"middle"
>>> label("Y3G")
"lower"
>>> label("Q18G")
"middle"
>>> label("F5R")
"middle"
>>> label("A23N")
"middle"
>>> label("F21N")
"lower"
>>> label("R14K")
"middle"
>>> label("L8P")
"middle"
>>> label("A10R")
"lower"
>>> label("A23I")
"middle"
>>> label("P11L")
"lower"
>>> label("R14Q")
"upper"
>>> label("V1N")
"middle"
>>> label("R14N")
"middle"
>>> label("L8I")
"lower"
>>> label("A10S")
"middle"
>>> label("E19W")
"middle"
>>> label("R7M")
"lower"
>>> label("C9W")
"upper"
>>> label("N15E")
"upper"
>>> label("Y3S")
"upper"
>>> label("K17M")
"middle"
>>> label("L8D")
"upper"
>>> label("A23P")
"middle"
>>> label("F5Y")
"lower"
>>> label("K17Y")
"middle"
>>> label("Q18T")
"lower"
>>> label("A10T")
"middle"
>>> label("F5C")
"middle"
>>> label("A10M")
"lower"
>>> label("R24D")
"upper"
>>> label("P20N")
"middle"
>>> label("C9K")
"lower"
>>> label("S22H")
"lower"
>>> label("R24N")
"upper"
>>> label("R24Y")
"lower"
>>> label("E6R")
"middle"
>>> label("P11D")
"lower"
>>> label("L12F")
"middle"
>>> label("R24I")
"middle"
>>> label("V1A")
"lower"
>>> label("I4S")
"middle"
